All figures here come from paper PMC9189845.

Reported values of SR for individual entries
- Test system: MES-SA/Dx5 cells
- assayMethodText: PrestoBlue viability assay, MES-SA/Dx5 cells (MDR, P-gp positive)
- conditionSet: selectivity ratio MES-SA vs MES-SA/Dx5, without TQ
No unit in the answer, only the number.

compound	SR
CCN1CCN(C(c2cccs2)c2ccc3cccnc3c2O)CC1 (stereo not drawn) [Compound 116]	0.64

Please find the next compound below.
Input Oc1c(C(c2cccnc2)N2CCOCC2)cc(Cl)c2cccnc12 (stereo not drawn) [Compound 109] , output reported SR.
1.55

====

- System: MES-SA cells
- assayMethodText: PrestoBlue viability assay, MES-SA cells
- conditionSet: Homo sapiens, MES-SA, 72 h, read-out: IC50 / μM MES-SA
readoutType: IC50 (µM)
Report the value in µM with no unit label.

Answer with reported IC50 of Oc1cccc2cccnc12 [Compound 12, 8-hydroxyquinoline]
5.04

====

- Tested on: MES-SA cells
- assayMethodText: PrestoBlue viability assay, MES-SA cells
- conditionSet: Homo sapiens, MES-SA, read-out: IC50 / μM MES-SA (values in parentheses)
readoutType: IC50 (µM)
Write the value in µM as a bare number.

Could you please provide reported IC50 for Oc1cccc2cccnc12 [Compound 12, 8-hydroxyquinoline] ? Thanks!
5.13

====

- Tested on: A431 cells
- assayMethodText: PrestoBlue viability assay, A431 cells
- conditionSet: Homo sapiens, A-431, 72 h, read-out: IC50 / µM A431, 72 h incubation
Strictly below 20 µM in IC50: met. Otherwise: not met.

recordSmiles	category
CCOCc1cc(CN2CCC(C)CC2)c(O)c2ncccc12	met
CCOC(=O)C1CCN(Cc2cc(Cl)c3cccnc3c2O)CC1	met
CN1CCN(Cc2ccc3cccnc3c2O)CC1	not met
COCc1cc(CN2CCCC2)c(O)c2ncccc12	not met
Oc1c(CN2CCCC2)ccc2cccnc12	met
COCc1cc(CN2CCOCC2)c(O)c2ncccc12	not met
CC1CCN(Cc2cc(COC(C)C)c3cccnc3c2O)CC1	met
CC1CCN(Cc2cc(Cl)c3cccnc3c2O)CC1	met
CN1CCN(Cc2cc(Cl)c3cccnc3c2O)CC1	met

Now look at this entry.
Please let me know if COCc1cc(CN2CCCCC2)c(O)c2ncccc12 shows IC50 below 20 µM.
not met

====

Attribute: SR
- System: MES-SA/Dx5 cells
- assayMethodText: PrestoBlue viability assay, MES-SA/Dx5 cells (MDR, P-gp positive)
- conditionSet: selectivity ratio MES-SA vs MES-SA/Dx5, without TQ
Reply briefly: the number, and no unit.

Here are 10 compounds together with their reported answers.
compound	SR
COCc1cc(CN2CCN(c3ccccc3)CC2)c(O)c2ncccc12	2.23
COCc1cc(CN2CCCCC2)c(O)c2ncccc12	10.19
CC1CCN(C(c2ccccc2)c2ccc3cccnc3c2O)CC1 (racemic)	0.76
Oc1c(C(c2cccnc2)N2CCCC2)ccc2cccnc12 (centres unmarked)	1.76
O=C1CCCN1Cc1cc(Cl)c2cccnc2c1O	0.84
CC(C)OCc1cc(CN2CCOCC2)c(O)c2ncccc12	1.79
CN1CCN(C(c2cccs2)c2ccc3cccnc3c2O)CC1 (centres unmarked)	0.76
Oc1c(CN2CCc3ccccc3C2)ccc2cccnc12	3.03
OCCN1CCN(C(c2ccccc2)c2ccc3cccnc3c2O)CC1 (centres unmarked)	1.53
Oc1ccc(CN2CCN(c3ccccc3)CC2)c2cccnc12	0.88

Shifting focus to the compound that follows.
Give SR for Oc1c(CN2CCc3ccccc3C2)cc(Br)c2cccnc12
6.23

====

- assayMethodText: UV-visible spectrophotometric titrations (pKa)
- Assay type: physicochemical
- conditionSet: water with 0.2% (v/v) DMSO, 25 °C, read-out: pKa (NpiperaziniumH+ at methyl / N-ethyl), experimentally determined
readoutType: pKa
Form: value (number only, do not type unit).

compound	pKa
CCN1CCN(Cc2ccc(O)c3ncccc23)CC1 [Compound 55]	5.48

Query pKa for CN1CCN(Cc2cc(Cl)c3cccnc3c2O)CC1 [Compound 9]
5.61

====

- System: MES-SA/Dx5 cells
- assayMethodText: PrestoBlue viability assay, MES-SA/Dx5 cells (MDR, P-gp positive)
- conditionSet: Homo sapiens, MES-SA/Dx5, 72 h, read-out: IC50 / μM MES-SA/Dx5, absence of TQ; 72 h incubation
Label true (1) when IC50 is strictly below 0.6 µM; otherwise label false (0).

Some solved cases for reference:
compound	category
O=C(c1ccccc1O)N1CCOCC1	false (0)
O=[N+]([O-])c1cc(CN(CCO)CCO)c(O)c2ncccc12	false (0)
CCCOCc1cc(CN2CCCCC2)c(O)c2ncccc12	true (1)
CN1CCN(Cc2ccc3cccnc3c2O)CC1	false (0)
CC(C)OCc1cc(CN2CCCCC2)c(O)c2ncccc12	true (1)
CCOCc1cc(CN2CCOCC2)c(O)c2ncccc12	false (0)

# TODO verify IC50 < 0.6 µM strictly for this compound: CCN1CCN(Cc2ccc(O)c3ncccc23)CC1
false (0)

Is 0.6 µM strictly greater than the compound's reported IC50? compound: CCOCc1cc(CN2CCCCC2)c(O)c2ncccc12
false (0)

Item CCCOCc1cc(CN2CCN(C)CC2)c(O)c2ncccc12 : IC50 beneath 0.6 µM, strictly?
false (0)

Lab note: IC50 threshold 0.6 µM. Does this compound come in strictly under it? Oc1c(CN2CCc3ccccc3C2)cc(Br)c2cccnc12
true (1)

hey, is IC50 for CC1CCN(Cc2cc(Cl)c3cccnc3c2O)CC1 lower than 0.6 µM or not?
true (1)

In the record for CCOCc1cc(CN2CCN(c3ccccc3)CC2)c(O)c2ncccc12 , is IC50 less than 0.6 µM?
true (1)

Lab log: compare recorded IC50 with 0.6 µM; is it strictly lower for Oc1c(C(c2ccccn2)N2CCCCC2)cc(Cl)c2cccnc12 (stereo not drawn) ?
false (0)

Does this compound meet the criterion IC50 < 0.6 µM? CC(C)OCc1cc(CN2CCN(c3ccccc3)CC2)c(O)c2ncccc12
true (1)

Lab log: compare recorded IC50 with 0.6 µM; is it strictly lower for Oc1c(C(c2ccccc2)N2CCCCC2)cc(Cl)c2cccnc12 (stereo not drawn) ?
false (0)

====

- System: MES-SA/Dx5 cells
- assayMethodText: PrestoBlue viability assay, MES-SA/Dx5 cells (MDR, P-gp positive)
- conditionSet: Homo sapiens, MES-SA/Dx5, 72 h, read-out: IC50 / μM MES-SA/Dx5, absence of TQ; 72 h incubation
readoutType: IC50

Worked cases, answers included:
compound	result
O=C1CCCN1Cc1cc(Cl)c2cccnc2c1O	12.2 µM
Oc1c(CN2CCCc3ccccc32)ccc2cccnc12	13.5 µM

Input Oc1c(CN2CCCC2)ccc2cccnc12 , output reported IC50.
1.47 µM

====

Where a name gives a salt, the structure may show the parent alone.
readoutType: melting point

Solved cases (5 shown):
compound	melting point
Oc1c(CN2CCCC2)cc(Br)c2cccnc12	119 to 121 °C
Oc1c(C(c2cccnc2)N2CCCCC2)ccc2cccnc12 (centres unmarked)	178 to 179 °C
Oc1c(CN2CCc3ccccc3C2)ccc2cccnc12	155 to 157 °C
CN1CCN(Cc2cnc3ccccc3c2O)CC1	164 to 166 °C
CN1CCN(Cc2ccc3cccnc3c2O)CC1	120 to 122 °C

State, in one line, measured melting point of Oc1cc2c(cc1O)CN(Cc1ccc3cccnc3c1O)CC2 (as salt: hydrochloride)
203 to 206 °C

Give reported melting point value for Oc1c(CN2CCc3ccccc3C2)cc(Br)c2cccnc12
156 to 159 °C

Supply reported melting point belonging to this compound: CN1CCN(Cc2ccc3ccccc3c2O)CC1
79 to 81 °C

====

- assayMethodText: UV-visible spectrophotometric titrations (pKa)
- Format: physicochemical
- conditionSet: water with 0.2% (v/v) DMSO, 25 °C, read-out: pKa (NpiperaziniumH+ closer to quinoline ring), experimentally determined
readoutType: pKa
Lab note: write the figure by itself, no unit.

Before answering, review these 2 worked examples.
recordSmiles	numericResult
Oc1c(CN2CCN(c3ccccc3)CC2)cc(Cl)c2cccnc12	10.1
Oc1ccc(CN2CCN(c3ccccc3)CC2)c2cccnc12	6.69

Now let's try a different one.
Hello, please tell me recorded pKa for this one: CCN1CCN(Cc2ccc(O)c3ncccc23)CC1
2.6

====

- System: MES-SA/Dx5 cells
- assayMethodText: PrestoBlue viability assay, MES-SA/Dx5 cells (MDR, P-gp positive)
- conditionSet: selectivity ratio MES-SA vs MES-SA/Dx5, without TQ
Just a reminder that ties go to no: only SR strictly below 2 counts as yes.

Solved cases below.
molecule	category
Oc1c(C(c2ccccn2)N2CCCC2)ccc2cccnc12 (centres unmarked) [Compound 84]	yes
O=[N+]([O-])c1cc(CN(CCO)CCO)c(O)c2ncccc12 [Compound 7]	yes
Oc1c(C(c2ccncc2)N2CCCC2)ccc2cccnc12 (centres unmarked) [Compound 86]	yes
Oc1c(C(c2ccccn2)N2CCCC2)cc(Cl)c2cccnc12 (centres unmarked) [Compound 90]	yes
Oc1c(CN2CCN(c3ccc(F)cc3)CC2)cc(Cl)c2cccnc12 [Compound 44]	no

Strictly below 2: is that where SR of COCc1ccc(O)c2ncccc12 [Compound 14] sits?
yes

Would you kindly verify if SR of CCCOCc1cc(CN2CCN(c3ccccc3)CC2)c(O)c2ncccc12 [Compound 41] is strictly less than 2?
no
